# Method description: soluble on expression in E. coli; label from the status in PepcDB or PDB records

# Sequence, soluble on expression in E. coli
rows = [
    ("GPGSMADYLREKVLESLGISFRETQNCRRWITEVTNMIWEAQPAELRTALCWTTPLGLVVRQPYKVRKEITLFTPHGCSRIPGDAFSAASRKQLTAIAPNLIHSLDATHLAMTAIEMQNLGLSMMAVHDSYWTYACDLPVLSKVLRQQFVTLYSKYDPLWELKEQWEEAYFMDLRRHGTLLPDPPKRGDLDLSVVLDSPYFFS", "not soluble"),
    ("MTPLKRYQKDIAEHGFQRDEAQHQAVVALDKLYHDIVEFQSAPIPQLSKWQKLMGKKVEMPQPPKGLYFWGGVGRGKTYLMDAFFDALPTDRKMRVHFHRFMYRVHDELKRLGEVENPLSKVADLFKQEADIVCFDEFFVSDITDAMILATLLQEMFKRQMVLVATSNIEPQNLYRNGLQRARFLPAIDMILARCHVLNVDSGVDYRLRTLEQAEIYHYPLDEQASINLNTYYQQLTAERKSVAHKIDINHRQISVIEASDGVLHASFEQLCQTARSQNDYIELSRIYHTVLLADVRQMNRKIDDAARRFIALVDEFYERNVKLIISAEVEMDALYSEGQLEFEFKRCVSRLTEMQSHEYLAREHLALEHHHHHH", "soluble"),
    ("MALNLKQRLEQKFEEEIRFFKGMVSQPKKVGAIVPTSSITAKKMASVINPHSGLPVLELGPGTGVITKAILARGIKPESLTAIEYSTDFYNQLLRSYPGVNFVNGDAFDLDATLGEHKGQMFDSVISAVPMLNFPMAARIKLLDELLKRVPHGRPVVQISYGPISPIVAQPHLYHIRHFDFIVRNIPPAQLWTYTRALEHHHHHH", "not soluble"),
    ("MSLEAKMEQIYQQIADTLVNIVPEEWKQILLYAEYREGYKKIFFYYYPETRIKPVYSLDITDLFHMNEDKYHELENKLYHCFSRLWEEFKEQEQQQWTNLTYTLDNTGRMKINYGYEDLFELSPVEKQEKWEAEYLEQEIEEGHHHHHH", "soluble"),
    ("MVIKFSSNTTNPPTMIYMGVDKVENEDLIKYGWPEDVWFHVDKLSSAHVYLRLHSGMTIDSIPEALLIDCCQLVKQNSIEGCKLNNVAIVYTMWSNLKKTGDMAVGQVGFHSHKQVKHTVVPTKINEIVNRLEKTRRKDDIDYKEERDARDAKERQKLKKLEQERKDREKKEMLAQNEKKRIEGYEDVDWDAGATTRNDVDPGNLSDDFM", "not soluble"),
    ("MYNSMDEVPVSLHASIDTGDGEFDMNALISNNAHILFIVLDSLRYDIALQEQTAGNTPNLNHYGQWTKCEAAGNFTWPSHHAMFSGFMPKPIDDTVNQTMLFFPKDIGLGRKGPKNAFAFDDATWIKSLENKGYQTICIGGVSFFNNRSGMGKVFPSMFKESYWHPRFACTVKESMDNQIHYIQKIMAERAGSQPVMMYINIDTIHYPNHFYVEGAAPGDTVETHAAALRYIDARIDGLLNIFRQTGGATFVIVCSDHGTCYGEDGKYFHSFNHPIVNTVPYMHFLLSGNHLEHHHHHH", "soluble"),
]

###

# Method description: soluble on expression in E. coli; label from the status in PepcDB or PDB records

# Sequence, soluble on expression in E. coli
records = [
    ("MGSDKIHHHHHHMELRHLRHFIVLARLKSFSKAANELHLAQPSLSRSIQKMEERLGASLLARDEKHFALTEYGRLVLAQGELIVSQLEYLESEIKTKQGLEKAKLVIGASPIPSNSIIGPAVGRFIRDNPDISLELKVESWSRLYKLLLKGELDMFIAETNATLLDQRDNVITQCLPQSQAIFCCRPHHPLTRLKTVYLPSLRDYPVGMPSAMPQLLRQRFEDLFEEDRHDFVGLVKYAQFQPIKSAIKECDMVVITPDISVREELASGELVALDVVGVPNIKASFSVVSMKNRRLSHSAEQFVDSLLTHSSAKAVGF", "not soluble"),
    ("MGSDKIHHHHHHMWGPPWMPDQDGNMTRESGYFQCTNRNKYSVAVDITTPEGQALIYEIAKTADVVIENYKTGSLAKYGLDYASLSELNPNIVYCSITGFGQDGPRAEEPGYDFIIQGMSGLMSITGEPDDVAGGGAQKVGVAVVDIQTGLYSTIAIQAALIARSHTGRGQYIDMSLLDVQVAALANQGMNYLASGKAPQRMGNQHPSIVPYQTFKAKDKEFIIACGNDKQFKDLCIAIGYPELLENEKFVRNQDRVKYRNELIPLLSEHFLRKTAKEWVDMIHALKVPVGVINSIEDALAEPQIVYRNLVVNIPHRLNENFQTIGSPIKLSDTPVEYHHAPPELGEHTAQILSRFKTAEELAALKEKGIIDGKIA", "not soluble"),
    ("MEKNWYVVHTYSGYENKVKANLEKRVESMGMQDKIFRVVVPEEEETDIKNGKKKVVKKKVFPGYVLVEIVMTDDSWYVVRNTPGVTGFVGSAGSGSKPTPLLPGEAETILKRMGMDERKTDIDFELKETVKVIDGPFANFTGSIEEIDYDKSKVKVFVNMFGRETPVELEFTQIDKL", "soluble"),
    ("MGSDKIHHHHHHMKRNESKYKQVVNHVIDGINNGSYKKGDWILSINEFRKNYNLSRDTVFAGLSELKSKGIIDSTPGVGYYIATTRIAQKLNIFLLFNEFNEFKEDLYNSFISSIRKTANVDLYFHNYNRKVFETLINEANYKYTTYILMPGKFTNIAPLLESLSGRVFLLDHFHPELAGKYSSVAQNFEKDTYEALVYGLPHLKKYDHIIMVQKEEKEPIERYNGLCAFCEEYHFTHEYTDSVRNREIRQGETFMVVNDRDLVDLLKQAQLQNFAPGKDFGIISYNDTPLKEILAGGITTLSTDFKQMGQTMASLITQKEIKTIENPWKLDIRNSL", "not soluble"),
    ("MAAFNAKYLIDLLKRIRSGEESIDSPDALELLYIPLPLAHELGVINSMDGLDPYDEMEISCKSILKKLDEKKKTEEKHRAKQERQAQKKGAKEQAKKEKAELKKEAKELLKKEKAEERKKESLKRKLSEKSEPAAKKAKASEDQENRGATKKKITPPNRKHTALFKKCMAMRVKNFAY", "not soluble"),
    ("METTKTNVLEAGAKVLQSNGPVGKLDIYLVGFHPMKDAPEQQMEAHHYCQQVNQDLAQCALYDGNTAEANLTGIEYIISESLFAQLPAQERAFWHPHNGEILSGQLSAPNLPLVAEKELMRSKMNSYGKTWHTWHSRKGTAPGDTLPLGEPMLAWSFSRDGEIQQPLIEQRDKAVTISTAERRADRKDLTELAKPQHGVDALHRHFPEATPIPGVVDAEATAQLEHHHHHH", "soluble"),
    ("SPLELELCPGRWVGGQHPCFIIAEIGQNHQGDLDVAKRMIRMAKECGADCAKFQKSELEFKFNRKALDRPYTSKHSWGKTYGEHKRHLEFSHDQYRELQRYAEEVGIFFTASGMDEMAVEFLHELNVPFFKVGSGDTNNFPYLEKTAKKGRPMVISSGMQSMDTMKQVYQIVKPLNPNFCFLQCTSAYPLQPEDVNLRVISEYQKLFPDIPIGYSGHETGIAISVAAVALGAKVLERHITLDKTWKGSDHSASLEPGELAELVRSVRLVERALGSPTKQLLPCEMACNEKLGKSVVAKVKIPEGTILTMDMLTVKVGEPKGYPPEDIFNLVGKKVLVTVEEDDTIMEELVDNHGKKIKS", "soluble"),
    ("MAHHHHHHMKEYLAQKEYRAKEYRAKDYPAKDYSGKKEYTSKKAYTPKKEYTAIRGCAVENAYFDEKAYTGCKANQGEEAHKNDASVVEGGKSKKNEERVLAGMIKILEEMKESDDASNAVDPGFN", "not soluble"),
    ("MSLSVEAMIGQLNAEIKRLDRLIRSHLNQHPELKKDFDLLTSIKSVGYQLGLNMLVILRSHDFATAEQAAAFLGVVPVEKYSGTSVRGCPKLSKIGPPEIRAKLYLASLCGLRFNPLMKAMYERLCLRGKGKMCAIGALMRKLVHWCYGVLKTQKPFDVGYLSSYARSACKAAEGHHHHHH", "soluble"),
    ("MGSDKIHHHHHHVVAVNRAVFLDRDGVINKDHGYVHQVDDFEYIEGVFEACLALKKMGYKLVVVTNQSGIARGMYSEDQFHSLTEWMDWNFADKGVDLDGIYYCPHHAEKGMGEYKVDCDCRKPKPGMLNDAAKFLKVDLSQSVMVGDKADDMQAAKAAGVPTRILVRSGKVIADSSDATIVLDSIADVPDYLKA", "not soluble"),
    ("MEANMPKRKEPGRSLRIKVISMGNAEVGKSCIIKRYCEKRFVSKYLATIGIDYGVTKVHVRDREIKVNIFDMAGHPFFYEVRNEFYKDTQGVILVYDVGQKDSFDALDAWLAEMKQELGPHGNMENIIFVVCANKIDCTKHRCVDESEGRLWAESKGFLYFETSAQTGEGINEMFQTFYISIVDLCENGGKRPTTNSSASFTKEQADAIRRIRNSKDSWDMLGVKPGASRDEVNKAYRKLAVLLHPDKCVAPGSEDAFKAVVNARTALLKNIK", "soluble"),
    ("PPLVANQVVTCPDKKSTAAVILTPTENHFTLKCPKTALTEPPTLAYSPNRQICPAGTTSSCTSKAVTLSSLIPEAEDSWWTGDSASLDTAGIKLTVPIEKFPVTTQTFVVGCIKGDDAQSCMVTVTVQARASSVVNNVARCSYGADSTLGPVKLSAEGPTTMTLVCGKDGVKVPQDNNQYCSGTTLTGCNEKSFKDILPKLTENPWQGNASSDKGATLTIKKEAFPAESKSVIIGCTGGSPEKHHCTVKLEFAG", "soluble"),
]
